// reported Ki for each item listed
test: Inhibition of Vibrio cholerae MetAp1a by Morrison method

# Smiles text, Ki
records = [
    ("COc1ccc(C(=O)CSc2nc(-c3ccccn3)nc(C)c2Cl)cc1", "1430 nM"),
    ("CSc1nc(-c2ccccn2)nc(N)c1C#N", "680 nM"),
    ("Cc1cc(S)nc(-c2ccccn2)n1", "120 nM"),
    ("FC(F)(F)c1cccc(-c2nc(-c3ccccn3)ncc2-c2nnnn2-c2ccccc2)c1", "1130 nM"),
    ("CCN(CC)C(=O)Oc1nc(-c2ccccn2)nc(COC)c1CC1CC1", "2470 nM"),
    ("CCCc1nc(-c2ccccn2)nc(O)c1CC1CC1", "70 nM"),
]
